molecular target: Misshapen-like kinase 1 (Homo sapiens) (UniProt Q8N4C8); conditions: at 0.1 µM;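 further: mean inhibition value reported, from GSK PKIS kinase profiling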
Sequence (Q8N4C8 whole entry, looked up): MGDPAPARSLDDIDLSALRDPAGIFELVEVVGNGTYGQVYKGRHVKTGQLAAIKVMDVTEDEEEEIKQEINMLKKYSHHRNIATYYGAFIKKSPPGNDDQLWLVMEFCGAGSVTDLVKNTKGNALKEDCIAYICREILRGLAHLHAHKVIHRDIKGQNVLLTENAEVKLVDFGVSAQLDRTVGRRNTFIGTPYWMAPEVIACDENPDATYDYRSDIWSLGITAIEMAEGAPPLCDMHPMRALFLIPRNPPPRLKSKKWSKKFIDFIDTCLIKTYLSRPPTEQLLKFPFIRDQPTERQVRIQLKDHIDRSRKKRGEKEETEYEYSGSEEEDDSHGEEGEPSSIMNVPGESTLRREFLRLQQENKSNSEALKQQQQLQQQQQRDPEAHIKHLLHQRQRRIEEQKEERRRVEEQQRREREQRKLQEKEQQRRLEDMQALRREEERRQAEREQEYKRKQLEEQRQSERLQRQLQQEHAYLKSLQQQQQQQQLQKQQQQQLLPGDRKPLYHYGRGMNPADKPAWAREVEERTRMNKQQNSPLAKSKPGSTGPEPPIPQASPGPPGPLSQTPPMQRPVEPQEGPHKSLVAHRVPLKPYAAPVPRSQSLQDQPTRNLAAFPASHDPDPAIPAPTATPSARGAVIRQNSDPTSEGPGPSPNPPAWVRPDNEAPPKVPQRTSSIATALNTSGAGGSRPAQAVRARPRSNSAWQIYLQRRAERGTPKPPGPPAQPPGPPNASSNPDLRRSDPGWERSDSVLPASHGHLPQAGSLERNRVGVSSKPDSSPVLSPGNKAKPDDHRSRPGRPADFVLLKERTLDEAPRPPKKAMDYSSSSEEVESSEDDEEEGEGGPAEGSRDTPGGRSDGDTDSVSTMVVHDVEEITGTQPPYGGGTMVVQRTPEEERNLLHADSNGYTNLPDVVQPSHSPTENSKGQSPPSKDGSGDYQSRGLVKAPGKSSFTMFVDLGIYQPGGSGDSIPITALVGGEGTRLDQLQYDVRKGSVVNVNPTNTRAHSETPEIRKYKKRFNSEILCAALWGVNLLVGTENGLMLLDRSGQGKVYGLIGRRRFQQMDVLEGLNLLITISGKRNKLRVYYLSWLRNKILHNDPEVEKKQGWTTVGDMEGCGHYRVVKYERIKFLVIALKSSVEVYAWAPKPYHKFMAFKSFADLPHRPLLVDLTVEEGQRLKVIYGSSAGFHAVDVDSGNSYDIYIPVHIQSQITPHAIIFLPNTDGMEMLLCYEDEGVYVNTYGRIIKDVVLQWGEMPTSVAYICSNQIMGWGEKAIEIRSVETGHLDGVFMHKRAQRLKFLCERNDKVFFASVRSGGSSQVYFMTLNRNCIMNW
Entries and their measured inhibition follow.
# value in %; strip the unit string

Query string: Any idea what inhibition came out for FC(F)(F)c1ccc(-c2nn3ncccc3c2-c2ccnc(Nc3ccc4c(c3)OCCO4)n2)cc1 on Misshapen-like kinase 1 (Homo sapiens) (UniProt Q8N4C8)?
Result string: 2.9

Query string: Any idea what inhibition came out for COc1cc2ncnc(Nc3ccc(C)c(O)c3)c2cc1OC on Misshapen-like kinase 1 (Homo sapiens) (UniProt Q8N4C8)?
Result string: 9.75

Query string: Any idea what inhibition came out for Cc1ccc(O)cc1Nc1ccnc2ccc(S(C)(=O)=O)cc12 on Misshapen-like kinase 1 (Homo sapiens) (UniProt Q8N4C8)?
Result string: 10.4
